Where do these numbers come from? They come from patent US20100267803A1.

Tested on: BT474 cells
method-notes: Counts of GFP co-transfected BT474 cells (cell death / viability)
Assay type: cell-based, human
measurement-parameters: shRNA co-transfected with GFP, counted up to 72 h
metric-name: cell death / viability (cell number of transfected cells)

substance	result-value
ME1 shRNA: shRNA, mature sequence GGCTTTATCCTCCTTTGAA (shRNA)	cell death
MDH1 shRNA: shRNA, mature sequence CGAGCTAAAGCTCAAATTG (shRNA)	cell death
